Target: T1, CTLA-4-hFc (immunogen A; hFc-labeled CTLA-4 extracellular domain protein) (human, UniProt P16410 36-161)
T1 construct: range 36-161; Made in HEK293 cells, purified on protein A; also called CLTA-4-hFc; CTLA-4 protein; not shown: human IgG Fc fragment (hFc) of the pCpC vector
T1 sequence (looked up): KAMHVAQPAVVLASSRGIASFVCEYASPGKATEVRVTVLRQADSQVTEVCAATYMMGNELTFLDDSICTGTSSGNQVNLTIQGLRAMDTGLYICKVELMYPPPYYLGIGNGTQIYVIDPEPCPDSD
Experiment: blocking assay, CTLA-4 protein, competitor B7.1
Method: CTLA-4 extracellular domain protein (CTLA-4-hFc) was diluted with PBS to a final concentration of 1.0 μg/mL, and then added to a 96-well ELISA plate as 100 μl per well. The plate was covered with a plastic film and incubated overnight at 4° C. […] An ELISA plate reader (SpectraMax 384plus, Molecular Device) was used to read the A450 nm value.
Endpoint Label: % Block at 0.064 nM (%)
Number only, in %; omit the unit.

Quickly give me recorded % Block at 0.064 nM for 40C4C6 fully human CTLA-4 antibody (human IgG1, kappa) (antibody, V domains shown, also called mAb09; mAb009) VH: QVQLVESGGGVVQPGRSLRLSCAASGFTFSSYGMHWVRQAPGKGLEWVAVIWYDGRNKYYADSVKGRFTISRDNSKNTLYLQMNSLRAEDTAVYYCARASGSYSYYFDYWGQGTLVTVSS VL: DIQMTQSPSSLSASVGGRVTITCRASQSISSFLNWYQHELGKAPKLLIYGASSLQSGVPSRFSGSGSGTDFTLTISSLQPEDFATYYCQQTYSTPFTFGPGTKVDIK
35
